# Study System: Human recombinant PDE2A (hPDE2A) (Homo sapiens)
# Construct: His tag (inferred from metal chelate purification); made in house; host or cells: Sf9 insect cells (baculovirus)
# Sequence (O00408 whole entry): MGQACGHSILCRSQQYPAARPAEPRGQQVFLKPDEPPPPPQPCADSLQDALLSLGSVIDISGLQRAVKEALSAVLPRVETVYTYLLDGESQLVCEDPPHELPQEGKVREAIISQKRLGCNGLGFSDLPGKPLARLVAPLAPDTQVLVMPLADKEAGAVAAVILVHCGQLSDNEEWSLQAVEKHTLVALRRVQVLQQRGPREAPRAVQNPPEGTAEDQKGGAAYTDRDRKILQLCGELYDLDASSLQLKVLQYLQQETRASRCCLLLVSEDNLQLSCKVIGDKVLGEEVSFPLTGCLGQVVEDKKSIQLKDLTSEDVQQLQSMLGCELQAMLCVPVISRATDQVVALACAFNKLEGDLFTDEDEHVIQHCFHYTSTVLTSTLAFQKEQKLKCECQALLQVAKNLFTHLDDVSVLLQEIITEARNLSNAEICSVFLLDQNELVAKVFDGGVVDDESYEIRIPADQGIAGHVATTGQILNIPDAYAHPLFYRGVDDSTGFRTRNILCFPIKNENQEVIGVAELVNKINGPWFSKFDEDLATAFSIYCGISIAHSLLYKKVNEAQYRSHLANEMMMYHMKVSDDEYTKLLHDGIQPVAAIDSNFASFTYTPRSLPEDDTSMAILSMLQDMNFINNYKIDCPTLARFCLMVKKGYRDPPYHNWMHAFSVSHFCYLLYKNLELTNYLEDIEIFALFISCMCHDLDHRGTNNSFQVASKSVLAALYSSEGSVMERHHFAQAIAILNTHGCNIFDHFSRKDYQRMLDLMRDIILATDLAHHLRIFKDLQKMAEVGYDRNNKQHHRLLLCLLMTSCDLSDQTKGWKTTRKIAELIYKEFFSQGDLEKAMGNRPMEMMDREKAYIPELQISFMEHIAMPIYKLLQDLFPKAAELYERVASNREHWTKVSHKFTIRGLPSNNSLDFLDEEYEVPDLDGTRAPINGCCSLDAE
# Assay Details: In vitro assay PDE2A (SPA, 3H-cGMP hydrolysis)
# Format: biochemical
# Assay Setup: hPDE2A pIC50
pIC50: −log10 of the molar value.

>  <Smiles Text>
Cc1cc(C(=O)N2CC[C@@H](C)[C@H](c3cc(C(F)F)nc4ncnn34)C2)cc(C)c1F

>  <Study System>
Human recombinant PDE2A (hPDE2A) (Homo sapiens)

>  <pIC50>
8.98

$$$$
>  <Smiles Text>
C[C@@H]1CCN(C(=O)c2cc(F)cc(C#N)c2)C[C@H]1c1cc(C(F)F)nc2ncnn12

>  <Study System>
Human recombinant PDE2A (hPDE2A) (Homo sapiens)

>  <pIC50>
7.99

$$$$
>  <Smiles Text>
Cc1nc2cc(C(=O)N3[C@H]4CC[C@H](c5cc(C(F)F)nc6ncnn56)[C@@H]3CC4)ccc2o1

>  <Study System>
Human recombinant PDE2A (hPDE2A) (Homo sapiens)

>  <pIC50>
7.35

$$$$
>  <Smiles Text>
Cc1cc(C(=O)N2CC[C@@H](C)[C@H](c3cc(C(F)F)nc4ncnn34)C2)cc(C)c1Cl

>  <Study System>
Human recombinant PDE2A (hPDE2A) (Homo sapiens)

>  <pIC50>
9.64

$$$$
>  <Smiles Text>
Cc1cc(C)cc(C(=O)N2CC[C@H](C)[C@@H](c3cc(C(F)F)nc4ncnn34)C2)c1

>  <Study System>
Human recombinant PDE2A (hPDE2A) (Homo sapiens)

>  <pIC50>
5.20

$$$$
>  <Smiles Text>
Cc1cc([C@@H]2CN(C(=O)c3ccc4ncsc4c3)CC[C@H]2C)n2ncnc2n1

>  <Study System>
Human recombinant PDE2A (hPDE2A) (Homo sapiens)

>  <pIC50>
9.23

$$$$
>  <Smiles Text>
Cc1cc([C@@H]2CN(C(=O)c3cc(C)c(F)c(C)c3)CC[C@H]2C)n2ncnc2n1

>  <Study System>
Human recombinant PDE2A (hPDE2A) (Homo sapiens)

>  <pIC50>
8.94

$$$$
>  <Smiles Text>
Cc1cc(C(=O)N2CC[C@@H](C)[C@H](c3cc(C)nc4ncnn34)C2)cc(C)n1

>  <Study System>
Human recombinant PDE2A (hPDE2A) (Homo sapiens)

>  <pIC50>
9.10

$$$$
>  <Smiles Text>
Cc1cc(C(=O)N2CC[C@@H](C)[C@H](c3cc(C)nc4ncnn34)C2)cc(C2CC2)n1

>  <Study System>
Human recombinant PDE2A (hPDE2A) (Homo sapiens)

>  <pIC50>
9.33

$$$$
>  <Smiles Text>
Cc1csc(C(=O)N2[C@H]3CC[C@H](c4cc(C(F)F)nc5ncnn45)[C@@H]2CC3)c1

>  <Study System>
Human recombinant PDE2A (hPDE2A) (Homo sapiens)

>  <pIC50>
8.27

$$$$
>  <Smiles Text>
Cc1cc([C@@H]2CN(C(=O)c3cc(C)c(Cl)c(C)c3)CC[C@H]2C)n2ncnc2n1

>  <Study System>
Human recombinant PDE2A (hPDE2A) (Homo sapiens)

>  <pIC50>
9.03

$$$$
>  <Smiles Text>
Cc1cc(C(=O)N2CC[C@@H](C)[C@H](c3cc(C(F)F)nc4ncnn34)C2)cc(C(F)F)n1

>  <Study System>
Human recombinant PDE2A (hPDE2A) (Homo sapiens)

>  <pIC50>
8.66

$$$$
>  <Smiles Text>
Cc1cc([C@@H]2CN(C(=O)c3ccc4occc4c3)CC[C@H]2C)n2ncnc2n1

>  <Study System>
Human recombinant PDE2A (hPDE2A) (Homo sapiens)

>  <pIC50>
8.79

$$$$
>  <Smiles Text>
C[C@@H]1CCN(C(=O)c2cc(Cl)cc(Cl)c2)C[C@H]1c1cc(C(F)F)nc2ncnn12

>  <Study System>
Human recombinant PDE2A (hPDE2A) (Homo sapiens)

>  <pIC50>
8.61

$$$$
>  <Smiles Text>
Cc1cc(C)cc(C(=O)N2CC[C@@H](C)[C@H](c3cc(C(F)F)nc4ncnn34)C2)c1

>  <Study System>
Human recombinant PDE2A (hPDE2A) (Homo sapiens)

>  <pIC50>
8.71

$$$$
>  <Smiles Text>
Cc1cc(C(=O)N2CC[C@@H](C)[C@H](c3cc(C(F)F)nc4ncnn34)C2)cc(F)c1F

>  <Study System>
Human recombinant PDE2A (hPDE2A) (Homo sapiens)

>  <pIC50>
8.29

$$$$
>  <Smiles Text>
Cc1cc([C@@H]2CN(C(=O)c3ccc4occ(C)c4c3)CC[C@H]2C)n2ncnc2n1

>  <Study System>
Human recombinant PDE2A (hPDE2A) (Homo sapiens)

>  <pIC50>
9.02

$$$$
>  <Smiles Text>
Cc1cc(C(=O)N2CC[C@@H](C)[C@H](c3cc(C(F)F)nc4ncnn34)C2)cc(Cl)c1F

>  <Study System>
Human recombinant PDE2A (hPDE2A) (Homo sapiens)

>  <pIC50>
8.64

$$$$
>  <Smiles Text>
Cc1cc(Cl)cc(C(=O)N2CC[C@@H](C)[C@H](c3cc(C(F)F)nc4ncnn34)C2)c1

>  <Study System>
Human recombinant PDE2A (hPDE2A) (Homo sapiens)

>  <pIC50>
9.17

$$$$
>  <Smiles Text>
Cc1cc(C(=O)N2CC[C@@H](C)[C@H](c3cc(C)nc4ncnn34)C2)cc(C(F)(F)F)n1

>  <Study System>
Human recombinant PDE2A (hPDE2A) (Homo sapiens)

>  <pIC50>
8.84

$$$$
>  <Smiles Text>
Cc1cc(C(=O)N2CC[C@@H](C)[C@H](c3cc(C(F)F)nc4ncnn34)C2)cc(C)c1C#N

>  <Study System>
Human recombinant PDE2A (hPDE2A) (Homo sapiens)

>  <pIC50>
9.00

$$$$
>  <Smiles Text>
Cc1cc(C(=O)N2CC[C@@H](C)[C@H](c3cc(C(F)F)nc4ncnn34)C2)cc(C)[n+]1[O-]

>  <Study System>
Human recombinant PDE2A (hPDE2A) (Homo sapiens)

>  <pIC50>
7.58

$$$$
>  <Smiles Text>
Cc1cc([C@H]2CN(C(=O)c3cc(C)c(F)c(C)c3)CC[C@@H]2C)n2ncnc2n1

>  <Study System>
Human recombinant PDE2A (hPDE2A) (Homo sapiens)

>  <pIC50>
6.25

$$$$
>  <Smiles Text>
Cc1cc([C@H]2CN(C(=O)c3cc(C)c(Cl)c(C)c3)CC[C@@H]2C)n2ncnc2n1

>  <Study System>
Human recombinant PDE2A (hPDE2A) (Homo sapiens)

>  <pIC50>
6.69

$$$$
>  <Smiles Text>
Cc1cc([C@H]2CN(C(=O)c3ccc(C)c(C)n3)CC[C@@H]2C)n2ncnc2n1

>  <Study System>
Human recombinant PDE2A (hPDE2A) (Homo sapiens)

>  <pIC50>
5.25

$$$$
>  <Smiles Text>
Cc1cc([C@@H]2CN(C(=O)c3cc(C)c(C)cn3)CC[C@H]2C)n2ncnc2n1

>  <Study System>
Human recombinant PDE2A (hPDE2A) (Homo sapiens)

>  <pIC50>
8.24

$$$$
>  <Smiles Text>
Cc1cc2ccc(C(=O)N3[C@H]4CC[C@H](c5cc(C(F)F)nc6ncnn56)[C@@H]3CC4)cn2c1

>  <Study System>
Human recombinant PDE2A (hPDE2A) (Homo sapiens)

>  <pIC50>
8.04

$$$$
>  <Smiles Text>
Cc1cc(C(=O)N2[C@H]3CC[C@H](c4cc(C(F)F)nc5ncnn45)[C@@H]2CC3)c(F)c(C)n1

>  <Study System>
Human recombinant PDE2A (hPDE2A) (Homo sapiens)

>  <pIC50>
7.65

$$$$
>  <Smiles Text>
COc1cc(C(=O)N2CC[C@@H](C)[C@H](c3cc(C)nc4ncnn34)C2)cc(Cl)n1

>  <Study System>
Human recombinant PDE2A (hPDE2A) (Homo sapiens)

>  <pIC50>
8.63

$$$$
>  <Smiles Text>
Cc1cc([C@H]2CN(C(=O)c3ccc4ncsc4c3)CC[C@@H]2C)n2ncnc2n1

>  <Study System>
Human recombinant PDE2A (hPDE2A) (Homo sapiens)

>  <pIC50>
7.72

$$$$

src = patent US10947242B2
